The measured values listed here are drawn from PubChem BioAssay AID1159580.

experiment: chemical genetic growth profiling, strain panel (AID 1159580);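 also: tested at 20 µM; growth read once vehicle control cultures reached saturation at 30 °C; 1 = growth at the plate median or of vehicle wells; lower values mean less growth of the strain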; conditions: S. cerevisiae deletion strains, growth OD, locus YJL187C, strain SWE1
In all, about 5,500 compounds went through this assay and about 2,000 (36%) were called active. Not shown: some 18% with an inconclusive outcome. Rule as the data show it: active = normalized growth mostly below about 0.91 (no sharp cut-off); inconclusive = no clear call, values can overlap the other calls; inactive = mostly above about 0.92. The list shows a part of the results.
Outcome codes: YES (active), NO (inactive)

Compound: CC(=O)O[C@@H]1C[C@@]2(C)C(CC[C@@H]2C(C)=O)C2CCC3=CC(=O)CC[C@]3(C)C21 (some centres undefined)
Label: NO

Compound: CC(N)CCCC(C)(C)O (centres undefined)
Label: NO

Compound: CC1=C(C/C=C(\C)CCC[C@H](C)CCC[C@H](C)CCCC(C)C)C(=O)c2ccccc2C1=O
Label: NO

Compound: CC(Oc1ccccc1)C(=O)N[C@@H]1C(=O)N2[C@@H]1SC(C)(C)[C@@H]2C(=O)O (some centres undefined)
Label: NO

Compound: CCN(CC)CCCC(C)Nc1ccnc2cc(Cl)ccc12 (centres undefined)
Label: NO

Compound: CCOC(=O)C(C)(C)Oc1ccc(Cl)cc1
Label: NO

Compound: CCN(CC)CCCC(C)Nc1c2ccc(Cl)cc2nc2ccc(OC)cc12 (centres undefined)
Label: NO

Compound: c1cncc(C2CCCCN2)c1 (centres undefined)
Label: NO

Compound: COc1cc2c(cc1OC)[C@@H]1C(=O)c3ccc(O)c(CC=C(C)C)c3O[C@@H]1CO2
Label: YES

Compound: CC(NCCc1ccc(O)cc1)C(O)c1ccc(O)cc1 (centres undefined)
Label: NO

Compound: CC(C[N+](C)(C)C)OC(N)=O (centres undefined)
Label: NO

Compound: CCC(=O)O[C@H]1CCC2C3CCC4=CC(=O)CC[C@]4(C)C3CC[C@@]21C (some centres undefined)
Label: YES

Compound: COc1ccc(OC)c(S(=O)(=O)Nc2ccc(C#N)cc2)c1
Label: NO

Compound: CC(N)C(=O)OC(C)(C)Cc1ccc(Cl)cc1 (centres undefined)
Label: NO

Compound: CN(C)c1ccc(C(=O)NN)cc1
Label: NO

Compound: COc1ccc2c(c1)O[C@@H]1COc3cc(OC)c(OC)cc3[C@@H]1C2=O
Label: YES

Compound: CC1=C(CC(=O)O)c2cc(F)ccc2/C1=C\c1ccc(S(C)=O)cc1 (centres undefined)
Label: NO

Compound: ClC1=C(Cl)C2(Cl)C3C(Cl)C=CC3C1(Cl)C2(Cl)Cl (centres undefined)
Label: NO

Compound: CC(=O)[C@H]1CCC2C3CCC4=CC(=O)CC[C@]4(C)C3CC[C@@]21C (some centres undefined)
Label: NO

Compound: O=C1C=CC(=C(c2ccc(O)cc2)c2ccc(O)cc2)C=C1
Label: NO

Compound: CNC(C)[C@H](O)c1ccccc1 (some centres undefined)
Label: NO

Compound: CC(=O)OCC[N+](C)(C)C
Label: NO

Compound: CC1=C(OS(=O)(=O)c2cc(C)c(Cl)cc2Cl)C(=O)CC1
Label: NO

Compound: C=C(C)C1CNC(C(=O)O)C1CC(=O)O (centres undefined)
Label: NO

* * *

assay: chemical genetic growth profiling, strain panel (AID 1159580); conditions: S. cerevisiae deletion strains, growth OD, locus YMR307W, strain GAS1, stronger effect = lower value
The campaign covered roughly 5,500 compounds. About 2,000 (36%) were called active. Another 18% or so got no clear call; they are omitted. Some of the results follow.
Listed here: items and their measured normalized growth.
Readout kind: normalized growth

Compound: CC(=O)N[C@@H](CC(C)C)C(=O)O
Measured value: 0.982 (inactive)

Compound: O=C(O)c1cc2ccccc2[nH]1
Measured value: 1.04 (inactive)

Compound: CC(C)CC(NC(=O)C(Cc1ccccc1)NC(=O)CNC(=O)CNC(=O)C(N)Cc1ccc(O)cc1)C(=O)O (centres undefined)
Measured value: 1.01 (inactive)

Compound: Ic1ccc(I)s1
Measured value: 1.12 (inactive)

* * *

Listed here: items and their measured normalized growth.
assay: chemical genetic growth profiling, strain panel (AID 1159580);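 also: tested at 20 µM; growth read once vehicle control cultures reached saturation at 30 °C; 1 = growth at the plate median or of vehicle wells; lower values mean less growth of the strain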; conditions: S. cerevisiae deletion strains, growth OD, locus YLR039C, strain RIC1, stronger effect = lower value
Screen size: about 5,500 compounds; about 2,000 (36%) were called active. Inconclusive results (about 18%) are left out. The list shows a part of the results.

Smiles notation: CCCCNc1cc(C(=O)O)cc(S(N)(=O)=O)c1Oc1ccccc1
normalized growth: 1.01
//
Smiles notation: CCOC(=O)c1cnc2cc(C)nn2c1C
normalized growth: 0.987
//
Smiles notation: N[C@@H](C(=O)O)c1ccccc1
normalized growth: 0.981
//
Smiles notation: CNCCc1ccccn1
normalized growth: 1.02

* * *

experiment: chemical genetic growth profiling, strain panel (AID 1159580);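 also: tested at 20 µM; growth read once vehicle control cultures reached saturation at 30 °C; 1 = growth at the plate median or of vehicle wells; lower values mean less growth of the strain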; settings: S. cerevisiae deletion strains, growth OD, strain wtn01, stronger effect = lower value
The whole screen tested about 5,500 compounds, of which about 2,000 (36%) were called active. About 18% were inconclusive and are not listed. The list shows a part of the results.
Listed here: items and their measured normalized growth.

Compound: CN1CCCN=C1COC(=O)C(O)(c1ccccc1)C1CCCCC1 (stereo unspecified)
normalized growth: 0.966

Compound: CC(N)CCCC(C)(C)O (stereo unspecified)
normalized growth: 1

Compound: COc1ccc2c(c1)OCc1c-2oc2cc(OC)ccc12
normalized growth: 0.983

Compound: CC(C)OC(=O)C(C)(C)Oc1ccc(C(=O)c2ccc(Cl)cc2)cc1
normalized growth: 0.987

Compound: CC(C(=O)O)c1cccc(Oc2ccccc2)c1 (stereo unspecified)
normalized growth: 0.983

Compound: CCOC(=O)[C@H](CCc1ccccc1)N[C@H]1CCc2ccccc2N(CC(=O)O)C1=O
normalized growth: 0.973

Compound: CC[C@H]1OC(=O)[C@H](C)[C@@H](O[C@H]2C[C@@](C)(OC)[C@@H](O)[C@H](C)O2)[C@H](C)[C@@H](O[C@@H]2O[C@H](C)C[C@H](N(C)C)[C@H]2O)[C@](C)(O)C[C@@H](C)CN(C)[C@H](C)[C@@H](O)[C@]1(C)O
normalized growth: 0.978

Compound: CN(C)CC/C=C1\c2ccccc2Sc2ccc(Cl)cc21
normalized growth: 0.937

Compound: Cc1cc(O)c(C)c(O)c1C(=O)O
normalized growth: 1.01

Compound: CC1/C(=N\O)C[C@@H]2C[C@H]1C2(C)C (stereo partly specified)
normalized growth: 0.995

Compound: CC(C(=O)O)c1ccc(-c2ccccc2)c(F)c1 (stereo unspecified)
normalized growth: 0.971

Compound: C=Cc1c2[nH]c(c1C)C=c1[nH]c(c(C)c1C=C)=CC1N=C(C=c3[nH]c(c(C)c3CCC(=O)O)=C2)C(CCC(=O)O)=C1C (stereo unspecified)
normalized growth: 0.996

Compound: CC1=C(C(C)O)C2=NC1C=c1[nH]c(c(C)c1C(C)O)=Cc1[nH]c(c(CCC(=O)O)c1C)C=c1[nH]c(c(C)c1CCC(=O)O)=C2 (stereo unspecified)
normalized growth: 0.981

Compound: C[C@]12CC(=O)C3C(CC[C@@H]4C[C@H](O)CC[C@]34C)C1CC[C@]2(O)C(=O)CO (stereo partly specified)
normalized growth: 0.943

Compound: CN1CCC(=C2c3ccccc3Sc3ccccc32)CC1
normalized growth: 1.02

Compound: C=C1C([C@]2(C)C(CC(=O)OC)[C@@](C)(COC(C)=O)OC(=O)C[C@@H]2OC(C)=O)[C@@H](OC=O)[C@H](OC(=O)C(O)C(C)CC)[C@@]2(C)[C@H](c3ccoc3)CC(=O)C12O (stereo partly specified)
normalized growth: 0.997

* * *

test: chemical genetic growth profiling, strain panel (AID 1159580);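 also: tested at 20 µM; growth read once vehicle control cultures reached saturation at 30 °C; 1 = growth at the plate median or of vehicle wells; lower values mean less growth of the strain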; conditions: S. cerevisiae deletion strains, growth OD, locus YER016W, strain bim1, stronger effect = lower value
Out of some 5,500 compounds screened, about 2,000 (36%) were called active. Inconclusive results (about 18%) are left out. This is one part of the list.
Readout kind: normalized growth

Compound: CC(N)CCCC(C)(C)O (stereo not given)
Measured value: 0.98 (inactive)
//
Compound: CC1(C)OC(=O)NC1=O
Measured value: 1.01 (inactive)
//
Compound: COc1ccc2c(c1OC)C(=O)O[C@H]2[C@H]1c2cc3c(cc2CCN1C)OCO3
Measured value: 0.997 (inactive)
//
Compound: COP(=O)(OC)OC=C(Cl)Cl
Measured value: 0.99 (inactive)
//
Compound: c1cncc(C2CCCCN2)c1 (stereo not given)
Measured value: 0.995 (inactive)
//
Compound: COc1ccc2c(c1OC)C(=O)O[C@@H]2[C@H]1c2cc3c(cc2CCN1C)OCO3
Measured value: 0.991 (inactive)
//
Compound: COc1cc2c(cc1OC)[C@@H]1C(=O)c3ccc4oc(C(C)C)cc4c3O[C@@H]1CO2
Measured value: 0.971 (inactive)
//
Compound: NCCSSCCN
Measured value: 0.992 (inactive)
//
Compound: S=c1nc[nH]c2nc[nH]c12
Measured value: 1 (inactive)
//
Compound: COc1cc(NS(=O)(=O)c2ccc(N)cc2)nc(OC)n1
Measured value: 0.988 (inactive)
